Every entry's value here was drawn from patent US20070149570A1.

biological target: substance P receptors (Homo sapiens, UniProt P25103); construct: The receptor was prepared from human lymphoblast cells (IM-9); endogenous in cells; host or cells: IM-9 human lymphoblast cells (membrane preparation); experiment: Radioligand receptor binding inhibitory activity using receptor from human lymphoblast cells (IM-9), 125I-BHSP; settings: IC50 (concentration necessary to cause 50% inhibition), radioligand 125I-BHSP, 25° C., 30 minutes
Sequence (P25103 whole entry): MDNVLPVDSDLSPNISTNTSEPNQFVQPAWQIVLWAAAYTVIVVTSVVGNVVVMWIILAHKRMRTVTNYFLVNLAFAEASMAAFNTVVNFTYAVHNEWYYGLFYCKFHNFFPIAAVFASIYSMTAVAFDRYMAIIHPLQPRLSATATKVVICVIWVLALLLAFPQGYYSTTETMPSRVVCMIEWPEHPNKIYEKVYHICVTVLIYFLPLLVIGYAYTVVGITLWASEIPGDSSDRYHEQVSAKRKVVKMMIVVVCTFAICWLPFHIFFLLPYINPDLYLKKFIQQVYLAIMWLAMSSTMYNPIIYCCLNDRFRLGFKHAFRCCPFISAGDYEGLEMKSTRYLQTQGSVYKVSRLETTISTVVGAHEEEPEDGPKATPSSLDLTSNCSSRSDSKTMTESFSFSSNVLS
Assay Endpoint: IC50 (nM)
A number alone suffices; assume nM.

# IC50 lookup, item COc1ccc(-c2ccc(C#N)cc2)cc1CN[C@H]1CCN(C(=O)C2CCN(C(C)=O)CC2)C[C@H]1c1ccccc1
0.017

====

target: substance P receptors (Homo sapiens); construct: The receptor was prepared from human lymphoblast cells (IM-9); endogenous in cells; host or cells: IM-9 human lymphoblast cells (membrane preparation); assay: Radioligand receptor binding inhibitory activity using receptor from human lymphoblast cells (IM-9), 125I-BHSP; conditions: radioligand 125I-BHSP, 25° C., 30 minutes, read-out: IC50 (concentration necessary to cause 50% inhibition)
Listing: IC50 of selected molecules
A number alone suffices; assume nM.

Here is how some molecules turned out for IC50.
>>> readout_number("COc1ccc(-c2ccc(C#N)cc2)cc1CN[C@H]1CCN(C(=O)Cc2n[nH]c(=O)[nH]2)C[C@H]1c1ccccc1")
0.015
>>> readout_number("CC1(C)OC(=O)N(CC(=O)N2CC[C@H](NCc3cc(-c4ccc(Cl)cc4)ccc3OC(F)(F)F)[C@H](c3ccccc3)C2)C1=O")
0.058
>>> readout_number("COc1ccc(-c2ccc(C(F)(F)F)cc2)cc1CN[C@H]1CCN(C(=O)CNC(C)=O)C[C@H]1c1ccccc1")
0.036
>>> readout_number("COc1ccc(-c2ccc(C#N)cc2)cc1CN[C@H]1CCN(C(=O)C2CC(=O)NC(=O)C2)C[C@H]1c1ccccc1")
0.014
>>> readout_number("N#Cc1ccc(-c2ccc(OC(F)(F)F)c(CN[C@H]3CCN(C(=O)C(N)=O)C[C@H]3c3ccccc3)c2)c(F)c1")
0.019

# IC50 lookup, item COc1ccc(-c2ccc(C#N)cc2C)cc1CN[C@H]1CCN(C(=O)CNC(C)=O)C[C@H]1c1ccccc1
0.018

# IC50 lookup, item COc1ccc(-c2ccc(F)cc2)cc1CN[C@H]1CCN(C(=O)CNC(C)=O)C[C@H]1c1ccccc1
0.031

# IC50 lookup, item COc1ccc(-c2ccc(Cl)cc2)cc1CN[C@H]1CCN(C(=O)CNC(C)=O)C[C@H]1c1ccccc1
0.02

# IC50 lookup, item COc1ccc(-c2ccc(C#N)cc2)cc1CN[C@H]1CCN(C(=O)CNC(C)=O)C[C@H]1c1ccccc1
0.019

# IC50 lookup, item O=C1CC(C(=O)N2CC[C@H](NCc3cc(-c4ccc(Cl)cc4F)ccc3OC(F)(F)F)[C@H](c3ccccc3)C2)CC(=O)N1
0.14

# IC50 lookup, item COc1ccc(-c2ccc(C)cc2)cc1CN[C@H]1CCN(C(=O)CNC(C)=O)C[C@H]1c1ccccc1
0.022

# IC50 lookup, item COc1ccc(-c2ccc(C#N)cc2)cc1CN[C@H]1CCN(C(=O)Cn2cnnn2)C[C@H]1c1ccccc1
0.015

# IC50 lookup, item COc1ccc(-c2ccc(C#N)cc2F)cc1CN[C@H]1CCN(C(=O)CNC(C)=O)C[C@H]1c1ccccc1
0.016

# IC50 lookup, item CC1(C)OC(=O)N(CC(=O)N2CC[C@H](NCc3cc(-c4ccc(C#N)cc4)ccc3OC(F)(F)F)[C@H](c3ccccc3)C2)C1=O
0.042
